Ref: the kinase profiling compilation of Christmann-Franck et al. (2016)

- Target Or Test System: MELK (human)
- Assay Info: radiometric filter-binding kinase assay
- Applied Conditions: compound 0.1 µM
Recorded residual activity for the following compounds
Readout Name: residual activity

Compound	Result
Cn1c(=O)c2c(ncn2C)n(C)c1=O	98%
NC(=O)Nc1ccc2c(c1)/C(=C/c1cc(-c3cccnc3)c[nH]1)C(=O)N2	16%
Cc1ccc(-c2ccc3c(ccc4sc5c(c43)NC[C@@H](C)NC5=O)n2)cn1	123%
C=CC(=O)N1CCC[C@@H](n2nc(-c3ccc(Oc4ccccc4)cc3)c3c(N)ncnc32)C1	69%
COc1ccc2c(c1)c1c3c(c4c5ccccc5n(C)c4c1n2CC(O)CN(C)C)C(=O)NC3=O (configuration not stated)	72%
O=C(Nc1nc2cc(C(F)(F)F)cc(NC3CC3)n2n1)c1cccnc1	107%
COc1cc(O)c2c(c1)[C@H]1OC1C[C@H](O)[C@H](O)C(=O)/C=C\C[C@H](C)OC2=O (some centres not stated)	100%
c1ccc2c(-c3cnn4cc(-c5ccc(N6CCNCC6)cc5)cnc34)ccnc2c1	81%
CCCCCc1ccc(/C=C/[C@H](O)[C@@H](CO)NC)cc1	108%
O=C(O)c1ccc(-c2c[nH]c3ncc(-c4ccccc4)cc23)cc1C1CCCC1	100%
CNc1nc(-c2ccc3c(N)n[nH]c3c2)cc(N2C[C@@H](C(=O)NC3CCCCC3)CC[C@H]2C)n1	77%
COc1ccc(-n2ncc3cnc(Nc4cc(OC)c(OC)c(OCCCN5CCN(C)CC5)c4)nc32)cc1	37%
Cc1cccc(-c2nn(C(=S)Nc3ccccc3)cc2-c2ccnc3ccccc23)n1	111%
CN1CCN(CCOc2cc(OC3CCOCC3)c3c(Nc4c(Cl)ccc5c4OCO5)ncnc3c2)CC1	106%
Cc1ccc(Sc2cnc(Nc3cccc(Br)n3)s2)cc1C(=O)N1CCN(C(=O)CN)CC1	42%
O=C(NCCCNc1nc(Nc2cccc(CN3CCOCC3)c2)ncc1C1CC1)C1CCC1	43%
C/C(=C1/C(=O)Nc2ccc(NC(N)=O)cc21)c1ccc[nH]1	9%

====

Below: a set of entries, each annotated with reported residual activity.
- Target Or Test System: MAPK13 (human) (UniProt O15264)
- Sequence (O15264 whole entry, looked up): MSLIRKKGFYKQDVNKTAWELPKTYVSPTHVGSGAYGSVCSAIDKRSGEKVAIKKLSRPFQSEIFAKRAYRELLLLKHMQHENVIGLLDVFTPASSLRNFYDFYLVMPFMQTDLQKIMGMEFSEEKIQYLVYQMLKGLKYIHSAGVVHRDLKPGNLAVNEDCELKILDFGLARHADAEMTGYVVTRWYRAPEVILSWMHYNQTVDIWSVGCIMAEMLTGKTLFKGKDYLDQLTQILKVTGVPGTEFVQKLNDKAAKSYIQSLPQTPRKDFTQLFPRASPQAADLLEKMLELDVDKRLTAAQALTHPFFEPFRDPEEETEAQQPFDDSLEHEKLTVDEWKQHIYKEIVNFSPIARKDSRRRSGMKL
- Assay Info: radiometric filter-binding kinase assay
- Applied Conditions: compound 1.0 µM

Compound	Target Or Test System	Result Units	residual activity
CNC(=O)C1[C@H]2O[C@@](C)([C@@H]1N)n1c3ccccc3c3c4c(c5c6ccccc6n2c5c31)C(=O)NC4 (stereo not given in full)	MAPK13 (human) (UniProt O15264)	%	48
N#Cc1c(C2CCNCC2)cc(-c2c(O)cccc2OCC2CC2)nc1N	MAPK13 (human) (UniProt O15264)	%	85
Cn1c(=O)c2c(ncn2C)n(C)c1=O	MAPK13 (human) (UniProt O15264)	%	88
COc1cc(C(=O)N2CCOCC2)c(F)cc1Nc1ncc(C(F)(F)F)c(NC2CC2)n1	MAPK13 (human) (UniProt O15264)	%	97
CC(C)(C#N)c1ccc(N2C(=O)OCc3cnc4ccc(-c5cnc6ccccc6c5)cc4c32)cc1	MAPK13 (human) (UniProt O15264)	%	96

====

- Target Or Test System: PTK6 (human) (UniProt Q13882)
- Sequence (Q13882 whole entry, looked up): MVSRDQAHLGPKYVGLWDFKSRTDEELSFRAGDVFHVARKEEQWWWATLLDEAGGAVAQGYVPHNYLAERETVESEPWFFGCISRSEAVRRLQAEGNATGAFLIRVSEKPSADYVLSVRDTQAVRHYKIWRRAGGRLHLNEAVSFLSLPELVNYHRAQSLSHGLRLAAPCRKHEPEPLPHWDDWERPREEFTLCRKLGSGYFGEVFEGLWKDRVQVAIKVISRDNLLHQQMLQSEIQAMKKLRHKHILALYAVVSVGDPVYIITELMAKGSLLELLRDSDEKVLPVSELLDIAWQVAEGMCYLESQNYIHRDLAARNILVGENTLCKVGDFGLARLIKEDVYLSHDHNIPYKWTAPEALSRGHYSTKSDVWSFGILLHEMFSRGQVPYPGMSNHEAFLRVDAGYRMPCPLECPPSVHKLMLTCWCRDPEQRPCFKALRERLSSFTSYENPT
- Assay Info: radiometric filter-binding kinase assay
- Applied Conditions: compound 1.0 µM
This listing pairs compounds with measured residual activity.
Readout Name: residual activity (%)

Compound	Readout Number
O=C(NOC[C@H](O)CO)c1ccc(F)c(F)c1Nc1ccc(I)cc1Cl	115
C=C1C(=O)OC2C1CC/C(C)=C/CCC1(C)OC21 (stereo not given)	107
O=C(NCCCNc1nc(Nc2cccc(CN3CCOCC3)c2)ncc1C1CC1)C1CCC1	110
COc1cc(C(=O)N2CCOCC2)c(F)cc1Nc1ncc(C(F)(F)F)c(NC2CC2)n1	53
O=C(NOCC(O)CO)c1ccc(F)c(F)c1Nc1ccc(I)cc1Cl (stereo not given)	126
C=CC(=O)N1CCC[C@@H](n2nc(-c3ccc(Oc4ccccc4)cc3)c3c(N)ncnc32)C1	4
NC(=O)c1c(NC(=O)C2CC2)sc2c1CCCC2	114
CC(C)(C#N)c1ccc(N2C(=O)OCc3cnc4ccc(-c5cnc6ccccc6c5)cc4c32)cc1	96
CCNc1nc(Nc2cc(F)c(C(=O)N3CCOCC3)cc2OC)ncc1C(F)(F)F	57
O=C(Nc1cccnc1)c1cc(-c2ccnc(F)c2)ccc1OCc1ccccc1	103

====

- Target Or Test System: MAPKAPK3 (human) (UniProt Q16644)
- Sequence (Q16644 whole entry, looked up): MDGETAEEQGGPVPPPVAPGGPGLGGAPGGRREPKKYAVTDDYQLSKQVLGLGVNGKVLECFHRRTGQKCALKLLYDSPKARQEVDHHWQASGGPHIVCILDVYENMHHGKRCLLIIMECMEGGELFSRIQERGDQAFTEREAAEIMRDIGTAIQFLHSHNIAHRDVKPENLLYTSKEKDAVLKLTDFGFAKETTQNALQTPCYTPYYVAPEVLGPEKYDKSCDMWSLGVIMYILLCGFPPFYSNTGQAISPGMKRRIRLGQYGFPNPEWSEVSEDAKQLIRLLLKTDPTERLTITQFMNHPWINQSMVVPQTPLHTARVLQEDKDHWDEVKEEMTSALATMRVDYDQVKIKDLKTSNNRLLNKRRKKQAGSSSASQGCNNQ
- Assay Info: radiometric filter-binding kinase assay
- Applied Conditions: compound 10.0 µM

Molecule	Result Units	residual activity
N#Cc1c(C2CCNCC2)cc(-c2c(O)cccc2OCC2CC2)nc1N	%	85
Cc1ccc(=O)n(-c2ccccc2)c1	%	84
CCn1c(-c2nonc2N)nc2cncc(CNC3CCNCC3)c21	%	97
Cn1nc(Nc2ccc(F)cc2)c2c(N)ncnc21	%	132
NC(=O)c1c(NC(=O)C2CC2)sc2c1CCCC2	%	93
CC(C)C[C@H](NC(=O)CNC(=O)c1cc(Cl)ccc1Cl)B1OC(=O)CC(CC(=O)O)(C(=O)O)O1 (stereo not given in full)	%	102
CN1C(=O)[C@@H](Cc2c[nH]c3ccccc23)NC1=S	%	114
CCCCCc1ccc(/C=C/[C@H](O)[C@@H](CO)NC)cc1	%	123
CCOC(=O)c1ccc(N2NC(=O)/C(=C/c3ccc([N+](=O)[O-])o3)C2=O)cc1	%	41
NS(=O)(=O)OC[C@@H]1C[C@@H](n2ccc3c(N[C@H]4CCc5ccccc54)ncnc32)C[C@@H]1O	%	101
NCC(=O)Nc1ccc(-n2nc(C(F)(F)F)cc2-c2ccc3c(ccc4ccccc43)c2)cc1	%	97
O=C(O)c1cc(N=Nc2ccc(S(=O)(=O)Nc3ccccn3)cc2)ccc1O	%	85
CC1=C(CO)C(=O)O[C@@H]([C@@H](C)[C@H]2CC[C@H]3[C@@H]4C[C@H]5O[C@]56[C@@H](O)C=CC(=O)[C@]6(C)C4CC[C@]23C)C1 (stereo not given in full)	%	47
Cc1cccc(Nc2nn(C)c3ncnc(N)c23)c1	%	130
N#Cc1c(O)c2c(-c3ccc(-c4ccccc4O)cc3)csc2[nH]c1=O	%	57
c1ccc2c(-c3cnn4cc(-c5ccc(N6CCNCC6)cc5)cnc34)ccnc2c1	%	86
O=S(=O)(c1ccc(F)c2nonc12)N1CCN(c2ncc(C(F)(F)F)cc2Cl)CC1	%	90
CCCC(CCC)C(=O)O	%	93
O=C(NOCC(O)CO)c1ccc(F)c(F)c1Nc1ccc(I)cc1Cl (stereo not given)	%	77
Cc1nc(-c2ccc(OCC(C)C)c(C#N)c2)sc1C(=O)O	%	95
CCNc1nc(Nc2cc(F)c(C(=O)N3CCOCC3)cc2OC)ncc1C(F)(F)F	%	108
NC(=O)c1cc2c(-c3cccc(-c4ccccc4)c3)cnc(N)c2s1	%	69
COc1cc2ncn(-c3cc(OCc4ccccc4S(C)(=O)=O)c(C#N)s3)c2cc1OC	%	67
NC(=O)c1ccc(-c2ccc(Oc3cncc4sc(-c5nn[nH]n5)cc34)cc2)cc1	%	87
Cc1ccc2c(c1)C(=O)[C@@]1(O)CCN(c3ccccc3)C1=N2	%	86
FC(F)(F)c1ccc(-c2ccc(Oc3cncc4sc(-c5nn[nH]n5)cc34)cc2)cc1	%	95
Cc1ccc(Sc2cnc(Nc3cccc(Br)n3)s2)cc1C(=O)N1CCN(C(=O)CN)CC1	%	85
NC(=O)c1cc(-c2ccnc(NC3CCCCC3)c2)nc(N2CCNCC2)c1	%	92
Cc1ccc(-c2ccc3c(ccc4sc5c(c43)NC[C@@H](C)NC5=O)n2)cn1	%	30
COc1ccc2c(c1)c1c3c(c4c5ccccc5n(C)c4c1n2CC(O)CN(C)C)C(=O)NC3=O (stereo not given)	%	79

====

- Target Or Test System: FGFR1 (human) (UniProt P11362)
- Sequence (P11362 whole entry, looked up): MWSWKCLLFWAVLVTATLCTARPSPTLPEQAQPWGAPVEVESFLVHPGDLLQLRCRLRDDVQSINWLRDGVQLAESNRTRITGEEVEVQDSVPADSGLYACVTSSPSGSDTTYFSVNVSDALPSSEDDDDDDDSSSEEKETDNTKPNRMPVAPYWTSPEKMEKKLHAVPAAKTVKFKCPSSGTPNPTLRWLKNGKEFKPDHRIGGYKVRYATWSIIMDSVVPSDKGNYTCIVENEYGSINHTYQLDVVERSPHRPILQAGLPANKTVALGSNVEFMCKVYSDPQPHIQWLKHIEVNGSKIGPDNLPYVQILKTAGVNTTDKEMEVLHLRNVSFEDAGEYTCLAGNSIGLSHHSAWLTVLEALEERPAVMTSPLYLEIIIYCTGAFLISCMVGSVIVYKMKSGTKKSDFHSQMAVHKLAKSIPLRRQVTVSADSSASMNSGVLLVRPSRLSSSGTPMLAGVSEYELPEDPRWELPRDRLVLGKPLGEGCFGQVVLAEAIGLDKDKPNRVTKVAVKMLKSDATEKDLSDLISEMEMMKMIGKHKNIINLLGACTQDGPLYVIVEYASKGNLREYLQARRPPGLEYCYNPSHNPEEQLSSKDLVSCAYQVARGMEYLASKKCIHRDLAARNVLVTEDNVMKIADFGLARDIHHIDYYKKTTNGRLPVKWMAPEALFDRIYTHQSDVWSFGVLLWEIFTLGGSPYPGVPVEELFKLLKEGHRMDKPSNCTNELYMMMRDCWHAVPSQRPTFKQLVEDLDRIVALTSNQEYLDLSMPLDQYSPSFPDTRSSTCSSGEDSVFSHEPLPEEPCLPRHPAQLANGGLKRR
- Assay Info: radiometric filter-binding kinase assay
- Applied Conditions: compound 1.0 µM
Each item that follows carries a reported residual activity.

Compound	Target Or Test System	residual activity / %
O=C(Nc1nc2cc(C(F)(F)F)cc(NC3CC3)n2n1)c1cccnc1	FGFR1 (human) (UniProt P11362)	101
Cn1c(=O)c2c(ncn2C)n(C)c1=O	FGFR1 (human) (UniProt P11362)	112
Cc1ccc(Sc2cnc(Nc3cccc(Br)n3)s2)cc1C(=O)N1CCN(C(=O)CN)CC1	FGFR1 (human) (UniProt P11362)	43
c1ccc2c(-c3cnn4cc(-c5ccc(N6CCNCC6)cc5)cnc34)ccnc2c1	FGFR1 (human) (UniProt P11362)	20
C=CC(=O)N1CCC[C@@H](n2nc(-c3ccc(Oc4ccccc4)cc3)c3c(N)ncnc32)C1	FGFR1 (human) (UniProt P11362)	24
COc1cc(O)c2c(c1)/C=C/C[C@H](O)[C@H](O)C(=O)/C=C\C[C@H](C)OC2=O	FGFR1 (human) (UniProt P11362)	87
O=C(Nc1ccccc1-c1cn2c(CN3CCNCC3)csc2n1)c1cnc2ccccc2n1	FGFR1 (human) (UniProt P11362)	91
NC(=O)c1ccc(-c2ccc(Oc3cncc4sc(-c5nn[nH]n5)cc34)cc2)cc1	FGFR1 (human) (UniProt P11362)	105
CCc1cncnc1N1CCN(Cc2nc3cc(C(F)(F)F)ccc3[nH]2)CC1	FGFR1 (human) (UniProt P11362)	92
CCNc1nc(Nc2cc(F)c(C(=O)N3CCOCC3)cc2OC)ncc1C(F)(F)F	FGFR1 (human) (UniProt P11362)	118
N#Cc1c(C2CCNCC2)cc(-c2c(O)cccc2OCC2CC2)nc1N	FGFR1 (human) (UniProt P11362)	97
FC(F)(F)c1ccc(-c2ccc(Oc3cncc4sc(-c5nn[nH]n5)cc34)cc2)cc1	FGFR1 (human) (UniProt P11362)	102
O=C1Nc2nc(-c3c(O)cccc3OCC3CC3)cc(C3CCCNC3)c2CO1 (centres undefined)	FGFR1 (human) (UniProt P11362)	96
NC(=O)c1c(NC(=O)C2CC2)sc2c1CCCC2	FGFR1 (human) (UniProt P11362)	105
CC(C)(C#N)c1ccc(N2C(=O)OCc3cnc4ccc(-c5cnc6ccccc6c5)cc4c32)cc1	FGFR1 (human) (UniProt P11362)	98
CC1=C(CO)C(=O)O[C@@H]([C@@H](C)[C@H]2CC[C@H]3[C@@H]4C[C@H]5O[C@]56[C@@H](O)C=CC(=O)[C@]6(C)C4CC[C@]23C)C1 (some centres undefined)	FGFR1 (human) (UniProt P11362)	97
COc1cc2ncn(-c3cc(OCc4ccccc4S(C)(=O)=O)c(C#N)s3)c2cc1OC	FGFR1 (human) (UniProt P11362)	49
CNC(=O)C1[C@H]2O[C@@](C)([C@@H]1N)n1c3ccccc3c3c4c(c5c6ccccc6n2c5c31)C(=O)NC4 (some centres undefined)	FGFR1 (human) (UniProt P11362)	3
NC(=O)Nc1ccc2c(c1)/C(=C/c1cc(-c3cccnc3)c[nH]1)C(=O)N2	FGFR1 (human) (UniProt P11362)	2
Cc1ccc(=O)n(-c2ccccc2)c1	FGFR1 (human) (UniProt P11362)	101
NC(=O)c1cc(-c2ccnc(NC3CCCCC3)c2)nc(N2CCNCC2)c1	FGFR1 (human) (UniProt P11362)	85
O=C1NC(=S)N[C@@H]1Cc1c[nH]c2ccccc12	FGFR1 (human) (UniProt P11362)	83
O=C(N[C@@H](COc1ccc2[nH]c(=O)[nH]c2c1)c1ccccc1)c1cccn(Cc2ccc(F)c(F)c2)c1=O	FGFR1 (human) (UniProt P11362)	97
CCCCCc1ccc(/C=C/[C@H](O)[C@@H](CO)NC)cc1	FGFR1 (human) (UniProt P11362)	111
O=c1c(O)c(-c2ccc(O)c(O)c2)oc2cc(O)c(O)c(O)c12	FGFR1 (human) (UniProt P11362)	27
CN1C(=O)[C@@H](Cc2c[nH]c3ccccc23)NC1=S	FGFR1 (human) (UniProt P11362)	93
CNc1nc(-c2ccc3c(N)n[nH]c3c2)cc(N2C[C@@H](C(=O)NC3CCCCC3)CC[C@H]2C)n1	FGFR1 (human) (UniProt P11362)	105
Cc1cc(SCc2sc(-c3ccc(C(F)(F)F)cc3)nc2C)ccc1OCC(=O)O	FGFR1 (human) (UniProt P11362)	100
C=C1C(=O)OC2C1CC/C(C)=C/CCC1(C)OC21 (centres undefined)	FGFR1 (human) (UniProt P11362)	106
COc1ccc(-n2ncc3cnc(Nc4cc(OC)c(OC)c(OCCCN5CCN(C)CC5)c4)nc32)cc1	FGFR1 (human) (UniProt P11362)	8
NCC(=O)Nc1ccc(-n2nc(C(F)(F)F)cc2-c2ccc3c(ccc4ccccc43)c2)cc1	FGFR1 (human) (UniProt P11362)	111
CCn1c(-c2nonc2N)nc2cncc(CNC3CCNCC3)c21	FGFR1 (human) (UniProt P11362)	115
CN(C)C/C=C/C(=O)Nc1cccc(C(=O)Nc2ccc(Nc3nccc(-c4cccnc4)n3)cc2)c1	FGFR1 (human) (UniProt P11362)	95
NC1(c2ccc(-c3nc4ccn5c(=O)[nH]nc5c4cc3-c3ccccc3)cc2)CCC1	FGFR1 (human) (UniProt P11362)	95
COc1ccc(N(C(=O)Nc2c(C)cccc2C)c2cc(Nc3ccc(N4CCN(C)CC4)cc3)ncn2)c(OC)c1	FGFR1 (human) (UniProt P11362)	2
COc1cc(C(=O)N2CCOCC2)c(F)cc1Nc1ncc(C(F)(F)F)c(NC2CC2)n1	FGFR1 (human) (UniProt P11362)	97
NC(=O)c1cc2c(-c3cccc(-c4ccccc4)c3)cnc(N)c2s1	FGFR1 (human) (UniProt P11362)	96
Cc1ccc(-c2ccc3c(ccc4sc5c(c43)NC[C@@H](C)NC5=O)n2)cn1	FGFR1 (human) (UniProt P11362)	91
C[C@H]1CCCC(=O)CCC/C=C/c2cc(O)cc(O)c2C(=O)O1	FGFR1 (human) (UniProt P11362)	90
